Here the recorded composite z-score is given for each entry.
- System: Plasmodium falciparum Sir2 (PF13_0152, Sir2A)
- assay_details: pfSir2 binders on small-molecule microarrays, primary screen, biochemical, small-molecule microarray, 635 nm fluorescence (AID 1098);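 note: score merges spot fluorescence intensity with its signal-to-noise ratio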
- condition_notes: small-molecule microarray binding, fluorescence 635 nm; higher = more signal
quantity_kind: composite z-score

1. COCCCNC(=O)[C@@]1(c2ccc([N+](=O)[O-])cc2)CC(=O)N(C(C)C)[C@@H]1c1ccc(CO)cc1 = 0.0788
2. CCCNC(=O)[C@@]1(C)c2ccccc2C(=O)N(Cc2ccccc2)[C@H]1c1ccc(CO)cc1 = 0.956
3. C=CCN1C(=O)[C@]2(O[C@H](CCO)[C@@H]([Si](C)(C)c3ccc(OC)cc3)[C@@H]2C)c2cc(N3C(=O)COc4ccccc43)ccc21 = 0.529
4. CCOC(=O)C[C@H]1[C@H](OC(=O)c2ccccc2-c2ccccc2)[C@@H](NC(=O)c2ccccc2)c2cc(OCCCO)ccc2N1C(=O)c1ccccc1 = -0.242
5. COc1ccc(C(O)C2C=CC3C(=O)N(c4ccccc4)C(=O)C3N2Nc2ccccc2)cc1 (stereo unspecified) = 0.97
6. [N-]=[N+]=Nc1ccccc1C[C@@]1(C(=O)O)N=C(c2ccc(OCCCO)cc2)O[C@@H]1c1ccccc1N=[N+]=[N-] = 1.46
7. COC(=O)C1N=C(c2ccc(OCCCO)cc2)N(c2ccccc2)O1 (stereo unspecified) = 1.05
8. COC(=O)[C@@]1(Cc2ccc(F)cc2)[C@H]2c3cc(C(=O)N(C)C)n(Cc4c(CO)[nH]cc(C)c4=O)c3C[C@H]2CN1C(=O)c1ccccc1 = -0.0424
9. Cc1ccc(S[C@]2(C(=O)NCc3ccccc3)CC(=O)N(Cc3cc(C(F)(F)F)cc(C(F)(F)F)c3)[C@@H]2c2ccc(CO)cc2I)cc1 = -0.466
10. COCCOC(=O)N1C(=O)[C@@]2(c3cc(C#CCC(C(=O)OC)C(=O)OC)ccc31)[C@H](C(=O)NC[C@H](O)c1ccccc1)[C@H]1C(=O)O[C@H](c3ccccc3)[C@H](c3ccccc3)N1[C@@H]2c1ccc(O)cc1 = 1.17
11. COCCOC(=O)N1C(=O)[C@@]2(c3cc(C#CCCO)ccc31)[C@H](C(N)=O)[C@H]1C(=O)O[C@H](c3ccccc3)[C@H](c3ccccc3)N1[C@@H]2c1ccc(OCCO)cc1 = 1.44

* * *

Here the recorded z-score is given for each entry.
- target: NADPH oxidase 4 (Homo sapiens)
- assay_details: NOX4-dependent H2O2 signal modulators, primary screen, NOX inhibitor project, cell-based, HEK293-NOX4, tetracycline-induced, Amplex Red fluorescence (AID 1160)
- condition_notes: 45 min, higher = more signal, called active from +8 up or from −8 down
quantity_kind: z-score

1. NC(=O)[C@H]1[C@@H]2C(=O)O[C@@H](c3ccccc3)[C@@H](c3ccccc3)N2[C@@H](c2ccc(O)cc2)[C@]12C(=O)Nc1ccccc12 = -0.988
2. Cc1ccc(C(C)CC(O)C2C=CC3C(=O)N(c4ccccc4)C(=O)C3N2Nc2ccc(C#N)cc2)o1 (stereo not drawn) = -3.34
3. C=C[C@H](C)[C@H](OC(=O)Nc1ccc(OC)cc1)c1ccc(OCCO)cc1 = 0.436

* * *

Here the recorded composite z-score is given for each entry.
- target: Concanavalin-A (Canavalia ensiformis)
- assay_details: ConA small-molecule binders, primary screen, artefact control for SMM control protein annotation, biochemical, small-molecule microarray, Alexa647 label, 635 nm (AID 1127);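 note: z combines 667 nm emission intensity with signal-to-noise across three replicate slides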
- condition_notes: ConA-A647 binding fluorescence, higher = more signal
quantity_kind: composite z-score

1) COCCOC(=O)N1C(=O)[C@@]2(c3cc(C#CCC(C(=O)OC)C(=O)OC)ccc31)[C@H](c1ccc(O)cc1)N1[C@H](c3ccccc3)[C@H](c3ccccc3)OC(=O)[C@H]1[C@@H]2C(=O)NC[C@H](O)c1ccccc1 = 1.07
2) COc1ccc([Si](C)(C)[C@@H]2[C@@H](CCn3cc([C@H](O)c4ccccc4)nn3)O[C@]3(C(=O)N(c4ccccc4)c4ccccc43)[C@H]2C)cc1 = 0.503
3) C=CCC(OC(C)=O)[C@@H]1[C@@H](N(Cc2ccc(-c3ccccc3)cc2)C(=O)Cc2ccc(F)cc2)c2cc(OCCCO)ccc2N1C(=O)Cc1ccc2ccccc2c1 (stereo partly specified) = -0.474
4) CC(C)C[C@@H]1NC(=O)CNC(=O)[C@@]23C(=O)N[C@@H](Cc4ccccc4)C2[C@H](C)[C@@]2(C)O[C@H]2C3/C=C/C/C=C\CNC1=O (stereo partly specified) = -0.404
5) O=C1C2C=CC(C(O)c3cccc(O)c3)N(Nc3ccccc3)C2C(=O)N1c1ccccc1 (stereo unspecified) = 0.338
6) COC(=O)[C@@]1(Cc2ccc(F)cc2)[C@H]2c3cc(C(=O)N4CCCC4)n(CC4CC4)c3C[C@H]2CN1C(=O)c1ccccc1 = 0.553
7) COCCOC(=O)N1C(=O)[C@@]2(c3cc(C#CC4(O)CCCCCC4)ccc31)[C@H](c1ccc(OCCO)cc1)N1[C@H](c3ccccc3)[C@H](c3ccccc3)OC(=O)[C@H]1[C@@H]2C(=O)Nc1nc2ccccc2s1 = 1.11
8) COc1cc(NN2C(C(O)c3ccccc3)C=CC3C(=O)N(C)C(=O)C32)cc(OC)c1OC (stereo unspecified) = 0.659
9) C=C[C@H](C)[C@H](OC(=O)Nc1ccc(OC)cc1)c1ccc(OCCO)cc1 = -1.35
10) CCCC=C(CCC)[C@@H](NC(=O)CCc1ccccc1)c1ccc(C(F)(F)F)cc1 = 1.1
11) C=C(COC)C(=O)CC[C@H](OC(C)=O)c1ccc(OCCO)cc1 = 0.488
12) NC(=O)[C@H]1[C@@H]2C(=O)O[C@@H](c3ccccc3)[C@@H](c3ccccc3)N2[C@@H](c2ccc(O)cc2)[C@]12C(=O)Nc1ccc(C#CC3=CCCCC3)cc12 = 0.565
13) O=C(CS)NCCCCCNC(=O)[C@@H]1C[C@@H]2C(=O)N[C@@H](Cc3ccccc3)C(=O)N2[C@@H]1c1cccc(OCCO)c1 = 1.13
14) CN(C)CCCCCCNC(=O)[C@@H]1C[C@@H]2C(=O)N[C@@H](CCCCN)C(=O)N2[C@@H]1c1ccc(O)cc1 = 1.24
15) COc1ccc([Si](C)(C)[C@H]2[C@H](CC(=O)N3Cc4ccccc4C[C@H]3CO)O[C@@]3(C(=O)N(Cc4ccc(N5C(=O)c6cccc7cccc5c67)cc4)c4ccccc43)[C@@H]2C)cc1 = 1.08
16) COc1ccc([Si](C)(C)[C@H]2[C@H](CC(=O)N3CCC[C@H]3CO)O[C@@]3(C(=O)N(Cc4ccc(N5CCC5=O)cc4)c4ccccc43)[C@@H]2C)cc1 = 1.13

* * *

- Tested on: glycogen synthase kinase-3 (GSK3A per assay name; protocol says GSK3B)
- assay_details: GSK3 binders on small-molecule microarrays, primary screen, biochemical, small-molecule microarray, 635 nm fluorescence, GSK3A (AID 1103); note: the record names both GSK3A and GSK3B
- condition_notes: small-molecule microarray binding, fluorescence 635 nm; higher = more signal
Here the recorded composite z-score is given for each entry.
quantity_kind: composite z-score

1. COCCOC(=O)N1C(=O)[C@@]2(c3cc(C#CCCO)ccc31)[C@H](C(=O)N1CCCCCCC1)[C@H]1C(=O)O[C@H](c3ccccc3)[C@H](c3ccccc3)N1[C@@H]2c1ccccc1OCCO = 1.35
2. NC(=O)[C@@H]1[C@H]2C(=O)O[C@H](c3ccccc3)[C@H](c3ccccc3)N2[C@H](c2ccc(OCCO)cc2)[C@@]12C(=O)Nc1ccc(C#CCCO)cc12 = -0.168
3. COc1cc2c(cc1OC)CN(C(=O)[C@@H]1[C@H]3C(=O)O[C@H](c4ccccc4)[C@H](c4ccccc4)N3[C@H](c3ccc(O)cc3)[C@@]13C(=O)Nc1ccc(C#CCCO)cc13)CC2 = 0.422

* * *

- assay_details: anti-His antibody binders, primary screen, artefact control for SMM control protein annotation, biochemical, small-molecule microarray, 635 nm fluorescence (AID 1128);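 note: score merges feature fluorescence with signal-to-noise for each printed compound spot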
- condition_notes: anti-His Alexa647 antibody binding, higher = more signal
quantity_kind: composite z-score

1. CN(C)C(=O)[C@@]1(Cc2ccccc2N=[N+]=[N-])N=C(c2ccc(OCCCO)cc2)O[C@H]1c1ccccc1 = 1.78
2. COCCOC(=O)N1C(=O)[C@@]2(c3cc(C#Cc4ccc(OC)cc4)ccc31)[C@H](C(=O)NC[C@H](O)c1ccccc1)[C@H]1C(=O)O[C@H](c3ccccc3)[C@H](c3ccccc3)N1[C@@H]2c1ccc(OCCO)cc1 = 1.24
3. C#C[C@@H](CC)O[Si](C#CCCCC#N)(C(C)C)C(C)C = 2.55
4. COc1cc(NN2C(C(O)c3cc(OC)c(OC)c(OC)c3)C=CC3C(=O)N(c4ccccc4)C(=O)C32)cc(OC)c1OC (stereo not drawn) = 1.41
5. COc1ccc([Si](C)(C)[C@@H]2[C@@H](CC(=O)N3Cc4ccccc4C[C@H]3CO)O[C@]3(C(=O)N(c4ccccc4)c4ccccc43)[C@H]2C)cc1 = 2.39
6. C=C/C=C/[C@@H]1C(=C)CN([C@@H](Cc2ccccc2)C(=O)OC)[C@H]1[C@@H](O)Cc1ccccc1 = 0.507
7. C=CCC(OC(C)=O)[C@@H]1[C@@H](N(Cc2cccc3ccccc23)C(=O)c2cccc3ccccc23)c2cc(OCCCO)ccc2N1C(=O)c1ccc2ccccc2c1 (stereo partly drawn) = 0.279
8. C=C(C)[C@@H]1CC=C(C(O)C2C=CC3C(=O)N(c4ccccc4)C(=O)C3N2Nc2ccc(C#N)cc2)CC1 (stereo partly drawn) = 0.526
9. O=C1O[C@H](c2ccccc2)[C@H](c2ccccc2)N2[C@H]1[C@@H](C(=O)N1CCCCCCC1)[C@]1(C(=O)Nc3ccc(C#CC4(O)CCCCCC4)cc31)[C@H]2c1ccccc1OCCO = 2.25
10. COC(=O)C1=CC(CCCO)=CC(c2ccc(CN3CCCC3)cc2)N(Cc2cc3c(cc2Br)OCO3)C=C1C(=O)OC (stereo not drawn) = 0.676
11. CC(C)OC(=O)CC(=O)CC(O)c1ccc([N+](=O)[O-])cc1 (stereo not drawn) = 0.42
12. CC(CO)N1C(=O)[C@@H]2[C@H]3C(=O)OCC=C[C@H]3OC23C=CCN(c2ccc(Cl)cc2)C(=O)[C@@H]13 (stereo partly drawn) = -0.715
13. NC(=O)[C@@H]1[C@H]2C(=O)O[C@H](c3ccccc3)[C@H](c3ccccc3)N2[C@H](c2ccc(OCCO)cc2)[C@@]12C(=O)Nc1ccc(C#CCCO)cc12 = 2.24
14. CN1C(=O)[C@@H]2[C@@H](CC(COc3ccccc3)=C([C@H](O)CCc3ccccc3)[C@@H]2CO)C1=O = -0.203
15. [N-]=[N+]=NC[C@H](Cc1ccccc1)NC(=O)c1ccccc1 = 0.568
16. C[C@@H]1ON(c2ccc(I)cc2)[C@H](c2ccc(OC(=O)OC(C)(C)C)cc2)[C@H]1C(=O)N1C(=O)OC[C@H]1Cc1ccccc1 = 0.955
17. COCC(=C=CC[C@@H](O)c1cccc(OCCO)c1)CCO = -0.128
18. CN(C)C(=O)[C@@]1(CCC(=O)OC(C)(C)C)N=C(c2ccc(OCCCO)cc2)O[C@H]1c1ccccc1CN=[N+]=[N-] = 2.38
19. CC(C)[C@H]1NC(=O)[C@@]23C(=O)N[C@@H](Cc4ccccc4)C2[C@H](C)[C@@]2(C)O[C@H]2C3/C=C/C/C=C\CNC(=O)[C@H](Cc2ccccc2)NC1=O (stereo partly drawn) = 0.591
20. [N-]=[N+]=NCc1ccccc1C[C@@]1(C(=O)N2CCCCC2)N=C(c2ccc(OCCCO)cc2)O[C@@H]1c1ccccc1CN=[N+]=[N-] = -0.174
21. COC(=O)[C@@]1(Cc2ccccc2)[C@H]2c3cc(C(=O)N4CCCC4)n(CCSCCO)c3C[C@H]2CN1C(=O)c1ccccc1 = 2.38
22. CCOC(=O)C1=CCC(c2ccco2)N(S(=O)(=O)c2ccc(C)cc2)C1 (stereo not drawn) = 1.1
23. CCCCNC(=O)c1ccc(C#C[Si](C(C)C)(C(C)C)C(C)C)c(OC(C)=O)c1 = 0.823
